Reference source for all entries: patent US10590143B2

test system: Setaria faberi (SETFA); assay: Biological Example 1 glasshouse assay for herbicidal activity; assay type: in vivo; settings: post-emergence, 312 h, post-emergence, 30 g/ha, 13 days after application, read-out: percentage phytotoxicity SETFA
Consider the following compounds and their measured pest or weed control at 30 g/ha readings.
MEASURE_NAME: pest or weed control at 30 g/ha (%)

- COMPOUND: "CC#Cc1cc(F)c(C2=C(OC(=O)c3ccccc3)C3CCC(C3)C2=O)c(OC)c1 (stereo not shown)"
  OBS_VALUE: 80
- COMPOUND: "CC#Cc1cc(F)c(C2=C(OC(=O)OC(C)C)C3CCC(C3)C2=O)c(OC)c1 (stereo not shown)"
  OBS_VALUE: 80
- COMPOUND: "CC#Cc1cc(F)c(C2=C(OC(=O)SCC)C3CCC(C3)C2=O)c(OC)c1 (stereo not shown)"
  OBS_VALUE: 80
- COMPOUND: "CC#Cc1cc(F)c(C2C(=O)C3CCC(C)(C2=O)C3(C)C)c(OC)c1 (stereo not shown)"
  OBS_VALUE: 90
- COMPOUND: "C#Cc1cc(F)c(C2C(=O)C3CCC(C3)C2=O)c(OC)c1 (stereo not shown)"
  OBS_VALUE: 70
- COMPOUND: "CC#Cc1cc(F)c(C2=C(OC(=O)C(C)(C)C)C3CCC(C3)C2=O)c(OC)c1 (stereo not shown) [Compound P1]"
  OBS_VALUE: 80
- COMPOUND: "CC#Cc1cc(F)c(C2C(=O)C3CCC(C3)C2=O)c(OCC)c1 (stereo not shown)"
  OBS_VALUE: 70
- COMPOUND: "CC#Cc1cc(Br)c(C2C(=O)C3CCC(C3)C2=O)c(OC)c1 (stereo not shown)"
  OBS_VALUE: 80
- COMPOUND: "CC#Cc1cc(F)c(C2=C(OC(=O)OCC)C3CCC(C3)C2=O)c(OC)c1 (stereo not shown) [Compound P2]"
  OBS_VALUE: 90
- COMPOUND: "CC#Cc1cc(F)c(C2C(=O)C3CCC(C3)C2=O)c(OC(F)F)c1 (stereo not shown)"
  OBS_VALUE: 70

----------
Parameter pest or weed control at 250 g/ha: see the listing below.
test system: Amaranthus retroflexus (AMARE); assay: Biological Example 1 glasshouse assay for herbicidal activity; format: in vivo; settings: Amaranthus retroflexus, pre-emergence, 312 h, pre-emergence, 250 g/ha, 13 days after application; read-out: percentage phytotoxicity AMARE

- COMPOUND: "CC#Cc1cc(F)c(C2C(=O)C3CCC(C3)C2=O)c(OCC(F)(F)F)c1 (centres unmarked)"
  STUDY_TARGET: "Amaranthus retroflexus (AMARE)"
  UNIT_DESCRIPTOR: "%"
  pest or weed control at 250 g/ha: 60
- COMPOUND: "CC#Cc1cc(F)c(C2=C(OC(=O)OC(C)C)C3CCC(C3)C2=O)c(OC)c1 (centres unmarked)"
  STUDY_TARGET: "Amaranthus retroflexus (AMARE)"
  UNIT_DESCRIPTOR: "%"
  pest or weed control at 250 g/ha: 60
- COMPOUND: "CC#Cc1cc(F)c(C2=C(OC(=O)SCC)C3CCC(C3)C2=O)c(OC)c1 (centres unmarked)"
  STUDY_TARGET: "Amaranthus retroflexus (AMARE)"
  UNIT_DESCRIPTOR: "%"
  pest or weed control at 250 g/ha: 60
- COMPOUND: "C#Cc1cc(F)c(C2C(=O)C3CCC(C3)C2=O)c(OC)c1 (centres unmarked)"
  STUDY_TARGET: "Amaranthus retroflexus (AMARE)"
  UNIT_DESCRIPTOR: "%"
  pest or weed control at 250 g/ha: 30
- COMPOUND: "CC#Cc1cc(F)c(C2C(=O)C3CCC(C3)C2=O)c(OCCOC)c1 (centres unmarked)"
  STUDY_TARGET: "Amaranthus retroflexus (AMARE)"
  UNIT_DESCRIPTOR: "%"
  pest or weed control at 250 g/ha: 50

----------
tested on: Setaria faberi (SETFA); test: Biological Example 1 glasshouse assay for herbicidal activity; type: in vivo; conditions: post-emergence, 312 h, post-emergence, 8 g/ha, 13 days after application, read-out: percentage phytotoxicity SETFA

- COMPOUND: "CC#Cc1cc(F)c(C2=C(OC(=O)C(C)(C)C)C3CCC(C3)C2=O)c(OC)c1 (stereo not drawn) [Compound P1]"
  pest or weed control at 8 g/ha: "70%"
- COMPOUND: "CC#Cc1cc(F)c(C2=C(OC(=O)c3ccccc3)C3CCC(C3)C2=O)c(OC)c1 (stereo not drawn) [Compound P5]"
  pest or weed control at 8 g/ha: "60%"
- COMPOUND: "CC#Cc1cc(F)c(C2=C(OC(=O)OC(C)C)C3CCC(C3)C2=O)c(OC)c1 (stereo not drawn) [Compound P3]"
  pest or weed control at 8 g/ha: "60%"
- COMPOUND: "CC#Cc1cc(F)c(C2=C(OC(=O)SCC)C3CCC(C3)C2=O)c(OC)c1 (stereo not drawn) [Compound P4]"
  pest or weed control at 8 g/ha: "70%"
- COMPOUND: "CC#Cc1cc(F)c(C2=C(OC(=O)OCC)C3CCC(C3)C2=O)c(OC)c1 (stereo not drawn) [Compound P2]"
  pest or weed control at 8 g/ha: "60%"
- COMPOUND: "C#Cc1cc(F)c(C2C(=O)C3CCC(C3)C2=O)c(OC)c1 (stereo not drawn) [Compound B1]"
  pest or weed control at 8 g/ha: "70%"
